# subject of test: AGE-BSA previously crosslinked to the collagen (Bos taurus)
# Construct: Bovine Serum Albumin (Type V), (BSA) Calbiochem; purchased Calbiochem (BSA Type V); Collaborative Biomedical Products (Biocoat collagen plates)
# experimental protocol: Cross-Link Breaking Assay (sandwich enzyme immunoassay)
# Format: biochemical
# experimental setup: detection with anti-BSA antibody; read-out: IC50 (mM) Anti-BSA
# Protocol: The present invention also involves a novel sandwich enzyme immunoassay used to ascertain the ability of test compounds to “break” or reverse already formed advanced glycosylation endproducts by detecting the breaking of AGE (Advanced glycosylation endproduct) moieties from AGE-crosslinked protein. This assay comprises: […] 1. […] The pH of the incubation mixture was monitored weekly and adjusted to pH 7.4 if necessary. […] Protein concentration was determined by the micro-Lowry method. […]
endpoint label: IC50 (mM)

{"columns": ["smiles code", "subject of test", "quantity unit", "observed value"],
 "data": [
  ["C=Cc1sc[n+](CC(=O)c2ccccc2)c1C.[Br-]", "AGE-BSA previously crosslinked to the collagen (Bos taurus)", "mM", 0.1]
]}

----------
# subject of test: AGE-BSA previously crosslinked to the collagen (Bos taurus, UniProt P02769)
# Construct: Bovine Serum Albumin (Type V), (BSA) Calbiochem; purchased Calbiochem (BSA Type V); Collaborative Biomedical Products (Biocoat collagen plates)
# Sequence (P02769 25-607): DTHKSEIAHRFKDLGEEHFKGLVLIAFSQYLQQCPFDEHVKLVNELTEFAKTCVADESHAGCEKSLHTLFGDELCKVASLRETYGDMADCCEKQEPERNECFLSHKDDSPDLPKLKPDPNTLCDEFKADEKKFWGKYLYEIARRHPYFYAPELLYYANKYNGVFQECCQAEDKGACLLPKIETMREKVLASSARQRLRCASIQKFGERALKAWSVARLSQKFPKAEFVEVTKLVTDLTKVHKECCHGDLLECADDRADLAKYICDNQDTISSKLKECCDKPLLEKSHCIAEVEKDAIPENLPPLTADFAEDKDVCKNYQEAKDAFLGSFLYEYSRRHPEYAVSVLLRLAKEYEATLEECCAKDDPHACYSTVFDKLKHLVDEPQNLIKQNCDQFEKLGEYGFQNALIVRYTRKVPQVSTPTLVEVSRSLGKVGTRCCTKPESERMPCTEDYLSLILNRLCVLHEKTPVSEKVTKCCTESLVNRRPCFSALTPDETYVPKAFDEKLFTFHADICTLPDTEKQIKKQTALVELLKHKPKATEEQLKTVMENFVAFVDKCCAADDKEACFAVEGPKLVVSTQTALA
# Sequence (P02454 152-1207 partner limits assumed): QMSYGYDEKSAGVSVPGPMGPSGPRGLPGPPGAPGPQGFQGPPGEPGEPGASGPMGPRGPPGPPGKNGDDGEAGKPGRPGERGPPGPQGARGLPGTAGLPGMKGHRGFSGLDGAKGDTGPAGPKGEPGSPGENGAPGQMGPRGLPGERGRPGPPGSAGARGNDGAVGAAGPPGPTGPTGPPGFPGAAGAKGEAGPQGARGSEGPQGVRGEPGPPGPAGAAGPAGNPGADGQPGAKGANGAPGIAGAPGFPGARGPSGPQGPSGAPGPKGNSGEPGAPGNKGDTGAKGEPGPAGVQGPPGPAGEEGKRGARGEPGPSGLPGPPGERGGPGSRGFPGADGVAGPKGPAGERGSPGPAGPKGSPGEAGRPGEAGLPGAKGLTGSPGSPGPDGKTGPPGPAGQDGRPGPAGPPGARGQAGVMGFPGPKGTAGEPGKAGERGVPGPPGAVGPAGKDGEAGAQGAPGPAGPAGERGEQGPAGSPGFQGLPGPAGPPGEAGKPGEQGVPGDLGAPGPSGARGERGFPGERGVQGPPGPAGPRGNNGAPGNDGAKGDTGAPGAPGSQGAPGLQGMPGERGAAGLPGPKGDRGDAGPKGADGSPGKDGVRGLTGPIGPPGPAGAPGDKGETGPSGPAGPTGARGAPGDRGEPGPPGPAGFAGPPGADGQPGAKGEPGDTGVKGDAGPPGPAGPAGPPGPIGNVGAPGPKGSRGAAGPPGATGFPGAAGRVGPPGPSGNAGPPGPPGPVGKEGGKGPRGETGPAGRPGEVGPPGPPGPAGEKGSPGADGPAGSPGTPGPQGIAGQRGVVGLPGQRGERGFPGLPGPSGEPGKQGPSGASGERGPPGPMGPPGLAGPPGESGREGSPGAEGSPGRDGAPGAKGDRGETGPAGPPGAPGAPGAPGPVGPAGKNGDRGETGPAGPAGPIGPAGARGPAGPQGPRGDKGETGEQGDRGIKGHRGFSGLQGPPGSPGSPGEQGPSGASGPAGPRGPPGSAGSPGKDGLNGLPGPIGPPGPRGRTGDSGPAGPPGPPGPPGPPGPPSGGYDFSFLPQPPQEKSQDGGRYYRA
# Sequence (P02466 86-1125 partner limits assumed): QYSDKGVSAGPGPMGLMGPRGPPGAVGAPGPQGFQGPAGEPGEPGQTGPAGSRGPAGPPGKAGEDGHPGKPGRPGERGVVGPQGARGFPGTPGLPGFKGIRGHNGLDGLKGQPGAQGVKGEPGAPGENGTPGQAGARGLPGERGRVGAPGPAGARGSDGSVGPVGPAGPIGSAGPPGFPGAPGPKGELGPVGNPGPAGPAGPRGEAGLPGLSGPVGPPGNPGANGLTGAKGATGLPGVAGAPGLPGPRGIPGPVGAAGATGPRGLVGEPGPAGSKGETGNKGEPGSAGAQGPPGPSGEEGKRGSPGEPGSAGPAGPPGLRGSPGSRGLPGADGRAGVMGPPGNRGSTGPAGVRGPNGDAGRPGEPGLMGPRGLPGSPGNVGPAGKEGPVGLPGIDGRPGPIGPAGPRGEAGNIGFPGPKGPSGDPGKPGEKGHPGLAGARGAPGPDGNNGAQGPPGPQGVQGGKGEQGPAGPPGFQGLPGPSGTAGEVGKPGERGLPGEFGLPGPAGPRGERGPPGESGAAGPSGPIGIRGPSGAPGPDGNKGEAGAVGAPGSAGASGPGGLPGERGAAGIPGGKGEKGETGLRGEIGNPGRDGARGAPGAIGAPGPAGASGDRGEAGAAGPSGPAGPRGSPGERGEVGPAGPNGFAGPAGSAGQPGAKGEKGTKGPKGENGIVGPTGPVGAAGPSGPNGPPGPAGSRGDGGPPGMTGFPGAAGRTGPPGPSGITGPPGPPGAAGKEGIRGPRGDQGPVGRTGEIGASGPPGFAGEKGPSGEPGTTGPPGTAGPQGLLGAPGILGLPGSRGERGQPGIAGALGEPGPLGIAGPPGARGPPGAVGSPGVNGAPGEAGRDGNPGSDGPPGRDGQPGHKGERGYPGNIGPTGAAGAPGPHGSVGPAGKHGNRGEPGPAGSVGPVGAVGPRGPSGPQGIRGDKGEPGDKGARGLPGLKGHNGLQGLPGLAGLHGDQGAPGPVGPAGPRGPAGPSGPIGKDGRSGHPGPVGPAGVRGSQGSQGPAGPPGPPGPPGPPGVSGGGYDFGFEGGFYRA
# experimental protocol: Cross-Link Breaking Assay (sandwich enzyme immunoassay)
# Type: biochemical
# experimental setup: at 10 mM, anti-BSA antibody

{"columns": ["smiles code", "quantity unit", "Breaking Anti-BSA"],
 "data": [
  ["CC(C)(C)C(=O)C[n+]1ccsc1.[Br-]", "%", 37],
  ["Cc1c(CCO)sc[n+]1Cc1ccccc1[N+](=O)[O-].[Br-]", "%", 13],
  ["COc1ccc(C(=O)C[n+]2c(N)sc3cc(N)ccc32)cc1.[Br-]", "%", 35],
  ["CCCCN(CCCC)C(=O)C[n+]1csc(CCO)c1C.[Br-]", "%", 38],
  ["Cc1c(CCO)sc[n+]1CC(=O)Nc1c(C(C)C)cccc1C(C)C.[Br-]", "%", 48],
  ["Nc1ccc2c(c1)sc(N)[n+]2CC(=O)c1ccc(Br)cc1.[Br-]", "%", 44],
  ["Cc1c(CCO)sc[n+]1Cc1c(Cl)cccc1Cl.[Cl-]", "%", 27],
  ["CCOC(=O)c1ccc(NC(=O)C[n+]2csc(CCO)c2C)cc1.[Br-]", "%", 57],
  ["Nc1ccc2c(c1)sc(N)[n+]2CC(=O)c1ccc(F)cc1.[Br-]", "%", 40],
  ["C[n+]1ccn(CC(=O)c2cc(C(C)(C)C)c(O)c(C(C)(C)C)c2)c1", "%", 38],
  ["COC(=O)c1ccc(NC(=O)C[n+]2csc(CCO)c2C)cc1O", "%", 18]
]}

----------
# subject of test: AGE-BSA previously crosslinked to the collagen (Bos taurus)
# Construct: Bovine Serum Albumin (Type V), (BSA) Calbiochem; purchased Calbiochem (BSA Type V); Collaborative Biomedical Products (Biocoat collagen plates)
# experimental protocol: Cross-Link Breaking Assay (sandwich enzyme immunoassay)
# Type: biochemical
# experimental setup: concentration not given, anti-BSA antibody

{"columns": ["smiles code", "Breaking Anti-BSA, %"],
 "data": [
  ["Cc1c(CCO)sc[n+]1CC(N)=O.[Br-]", 57],
  ["CC(=O)C[n+]1ccsc1.[Cl-]", 93],
  ["NC(=O)C[n+]1csc2ccccc21.[Br-]", 65],
  ["O=C(C[n+]1ccsc1)c1ccccc1.[Br-]", 98]
]}
